- system: Tyrosine-protein phosphatase non-receptor type 1 (Homo sapiens) (UniProt P18031)
- Sequence (whole entry): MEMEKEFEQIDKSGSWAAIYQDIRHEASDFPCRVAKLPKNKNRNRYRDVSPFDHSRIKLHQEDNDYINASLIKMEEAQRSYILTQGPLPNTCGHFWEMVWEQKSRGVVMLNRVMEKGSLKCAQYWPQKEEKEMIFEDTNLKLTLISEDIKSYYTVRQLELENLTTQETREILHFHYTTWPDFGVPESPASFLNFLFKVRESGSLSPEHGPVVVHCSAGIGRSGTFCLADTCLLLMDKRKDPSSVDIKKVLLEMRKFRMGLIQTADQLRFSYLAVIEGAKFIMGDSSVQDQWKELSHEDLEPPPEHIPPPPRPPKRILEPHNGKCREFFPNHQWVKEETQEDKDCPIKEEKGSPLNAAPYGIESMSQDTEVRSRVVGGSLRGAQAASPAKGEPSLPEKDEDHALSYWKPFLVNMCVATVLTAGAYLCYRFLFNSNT
- assayDetails: Inhibition of PTP1B (unknown origin) expressed in Escherichia coli expression system using p-nitrophenyl phosphate as substrate assessed as release of p-nitrophenol at 10 ug/mL incubated for 10 mins prior to substrate addition measured after 30 mins relative to control
Examples of compounds with documented Imax follow.
// units = %; emit number, no label

The examples below pair each entry with its known result.
The recorded Imax for entry COC(=O)CCCCCNC(=O)[C@]12CCC(C)(C)C[C@H]1C1=CC[C@@H]3[C@@]4(C)CC[C@H](O[C@H]5O[C@H](C(=O)O)[C@@H](O)[C@H](O)[C@@H]5O)C(C)(C)[C@@H]4CC[C@@]3(C)[C@]1(C)CC2 equals 98.6

The recorded Imax for entry COC(=O)CCCCCNC(=O)[C@]12CCC(C)(C)C[C@H]1C1=CC[C@@H]3[C@@]4(C)CC[C@H](O[C@]5(C(=O)OC)C[C@H](O)[C@@H](NC(C)=O)[C@H]([C@H](O)[C@H](O)CO)O5)C(C)(C)[C@@H]4CC[C@@]3(C)[C@]1(C)CC2 equals 56

The recorded Imax for entry COC(=O)CCCCCNC(=O)[C@]12CCC(C)(C)C[C@H]1C1=CC[C@@H]3[C@@]4(C)CC[C@H](O[C@@]5(C(=O)OC)C[C@H](O)[C@@H](NC(C)=O)[C@H]([C@H](O)[C@H](O)CO)O5)C(C)(C)[C@@H]4CC[C@@]3(C)[C@]1(C)CC2 equals 8.34

Attention now shifts to the item below.
The recorded Imax for entry CC1(C)CC[C@]2(C(=O)NCCCCCC(=O)O)CC[C@]3(C)C(=CC[C@@H]4[C@@]5(C)CC[C@H](O[C@H]6O[C@H](C(=O)O)[C@@H](O)[C@H](O)[C@@H]6O)C(C)(C)[C@@H]5CC[C@]43C)[C@@H]2C1 equals 64.8

----------
Examples of compounds with documented Imax follow.
- system: Tyrosine-protein phosphatase non-receptor type 1 (Homo sapiens) (UniProt P18031)
- assayDetails: Inhibition of PTP1B (unknown origin) expressed in Escherichia coli expression system using p-nitrophenyl phosphate as substrate assessed as release of p-nitrophenol at 10 ug/mL incubated for 10 mins prior to substrate addition measured after 30 mins relative to control
// units = %; emit number, no label

The recorded Imax for entry CC1(C)CC[C@@]23CC[C@]4(C)[C@@](OC2=O)([C@@H]3C1)[C@@H](O)C[C@@H]1[C@@]2(C)CC[C@H](O[C@@H]3O[C@H](CO)[C@@H](O[C@@H]5O[C@H](CO)[C@H](O)[C@H](O)[C@H]5O)[C@H](O)[C@H]3O)C(C)(C)[C@@H]2CC[C@]14C equals 2.55

The recorded Imax for entry CC(=O)N[C@H]1[C@H]([C@H](O)[C@H](O)CO)O[C@@](O[C@H]2CC[C@]3(C)[C@H]4CC=C5[C@@H]6CC(C)(C)CC[C@]6(C(=O)NCCCCCC(=O)O)CC[C@@]5(C)[C@]4(C)CC[C@H]3C2(C)C)(C(=O)O)C[C@@H]1O equals 46

The recorded Imax for entry CC1(C)CC[C@]2(C(=O)NCCCCCC(=O)O)CC[C@]3(C)C(=CC[C@@H]4[C@@]5(C)CC[C@H](O)C(C)(C)[C@@H]5CC[C@]43C)[C@@H]2C1 equals 14.3

The recorded Imax for entry COC(=O)CCCCCNC(=O)[C@]12CCC(C)(C)C[C@H]1C1=CC[C@@H]3[C@@]4(C)CC[C@H](O[C@H]5O[C@H](CO)[C@@H](O)[C@H](O)[C@@H]5O)C(C)(C)[C@@H]4CC[C@@]3(C)[C@]1(C)CC2 equals 1.52

The recorded Imax for entry CC1(C)CC[C@@]23CC[C@]4(C)[C@@](OC2=O)([C@@H]3C1)[C@@H](O)C[C@@H]1[C@@]2(C)CC[C@H](O[C@H]3O[C@H](C(=O)O)[C@@H](O)[C@H](O)[C@@H]3O)C(C)(C)[C@@H]2CC[C@]14C equals 3.72

The recorded Imax for entry CC1(C)CC[C@]2(C(=O)NCCCCCC(=O)O)CC[C@]3(C)C(=CC[C@@H]4[C@@]5(C)CC[C@H](O[C@@H]6O[C@H](C(=O)O)[C@@H](O)[C@H](O)[C@H]6O)C(C)(C)[C@@H]5CC[C@]43C)[C@@H]2C1 equals 72

Attention now shifts to the item below.
The recorded Imax for entry C[C@@H]1O[C@@H](O[C@H]2CC[C@]3(C)[C@H]4CC=C5[C@@H]6CC(C)(C)CC[C@]6(C(=O)NCCCCCC(=O)O)CC[C@@]5(C)[C@]4(C)CC[C@H]3C2(C)C)[C@@H](O)[C@H](O)[C@@H]1O equals 63.2
